Listing of entries alongside the reported kon.
target: IL-13 (Homo sapiens (Human), UniProt P35225 35-146, limits assumed); test: Biacore
Sequence (P35225 35-146 limits assumed): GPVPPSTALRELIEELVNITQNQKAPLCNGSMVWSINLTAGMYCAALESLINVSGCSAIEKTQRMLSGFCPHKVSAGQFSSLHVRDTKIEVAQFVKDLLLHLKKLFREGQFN
Express your answer in M⁻¹ s⁻¹, writing the number without its unit.

These recorded examples may help you get a feel for the data.
| binder | kon / M⁻¹ s⁻¹ |
| --- | --- |
| M459 (antibody, V domains shown, anti-IL-13, human IgG1) VH: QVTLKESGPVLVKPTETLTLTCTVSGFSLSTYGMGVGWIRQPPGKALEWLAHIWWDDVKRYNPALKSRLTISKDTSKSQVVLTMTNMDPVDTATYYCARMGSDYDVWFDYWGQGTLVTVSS VL: EIVLTQSPATLSLSPGERATLSCRASKSISKYLAWYQQKPGQAPRLLIYSGSTLQSGIPARFSGSGSGTDFTLTISSLEPEDFAVYYCQQPLEAPYTFGQGTKLEIK | 1.26e+06 |
| M464 (antibody, V domains shown, anti-IL-13, human IgG1) VH: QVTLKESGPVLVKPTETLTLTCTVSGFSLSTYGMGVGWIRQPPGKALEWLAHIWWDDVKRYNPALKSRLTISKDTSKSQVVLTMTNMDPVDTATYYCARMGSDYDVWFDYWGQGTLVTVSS VL: EIVLTQSPATLSLSPGERATLSCRASKSISKYLAWYQQKPGQAPRLLIYSGSTLQSGIPARFSGSGSGTDFTLTISSLEPEDFAVYYCQQHEWGPYTFGQGTKLEIK | 1.29e+06 |

--- query ---
Q: I'd like to know its kon. The binder in question is M476 (antibody, V domains shown, anti-IL-13, human IgG1) VH: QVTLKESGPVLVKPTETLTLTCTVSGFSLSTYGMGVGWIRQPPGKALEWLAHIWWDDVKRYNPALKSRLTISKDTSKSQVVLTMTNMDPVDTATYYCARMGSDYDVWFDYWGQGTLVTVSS VL: EIVLTQSPATLSLSPGERATLSCRASKSISKYLAWYQQKPGQAPRLLIYSGSTLQSGIPARFSGSGSGTDFTLTISSLEPEDFAVYYCQQHSVGPYTFGQGTKLEIK
Ans: 1.02e+06
